# studySystem: human EAAT2 (Homo sapiens)
# Construct: expressed in transfected cells; host or cells: MDCK (MDCK/EAAT2)
# Sequence (P43004 whole entry): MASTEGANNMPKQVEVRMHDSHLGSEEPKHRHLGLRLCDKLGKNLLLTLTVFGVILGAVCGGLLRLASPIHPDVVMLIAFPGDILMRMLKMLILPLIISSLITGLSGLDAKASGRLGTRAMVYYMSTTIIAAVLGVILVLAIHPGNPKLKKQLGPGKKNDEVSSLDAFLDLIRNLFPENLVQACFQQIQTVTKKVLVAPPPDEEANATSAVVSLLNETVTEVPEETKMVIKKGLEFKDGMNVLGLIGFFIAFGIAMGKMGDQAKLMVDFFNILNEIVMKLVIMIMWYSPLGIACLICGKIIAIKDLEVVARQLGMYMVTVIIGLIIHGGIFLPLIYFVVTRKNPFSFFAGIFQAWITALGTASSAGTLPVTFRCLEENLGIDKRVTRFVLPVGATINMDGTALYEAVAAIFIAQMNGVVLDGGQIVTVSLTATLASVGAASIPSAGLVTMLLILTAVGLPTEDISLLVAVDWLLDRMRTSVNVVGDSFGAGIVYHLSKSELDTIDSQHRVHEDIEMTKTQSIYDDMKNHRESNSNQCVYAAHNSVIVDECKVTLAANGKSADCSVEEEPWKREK
# protocolDescription: L-[3H]glutamate uptake into MDCK/EAAT2 cells (EAAT2-mediated glutamate transport)
# Type: cell-based
pIC50: −log10 of the molar value.
metric: pIC50

>  <compound>
C=C(C)[C@H]1CN[C@H](C(=O)O)[C@H]1CC(=O)O [Kainic acid]

>  <studySystem>
human EAAT2 (Homo sapiens)

>  <experimentalResult>
4.40

$$$$
